The following compounds are shown together with reported inhibition at 3 µM values.
- TEST TARGET: Human CaV2.2 channels (Homo sapiens)
- Construct: expressed in transfected cells; host or cells: HEK293
- PROCEDURE SUMMARY: Fluorescent (FLIPR) assay for CaV2.2 channels using potassium depolarization to induce channel opening
- Assay type: cell-based
- CONDITION LABEL: 3 μM compound; 30 mM KCl assay buffer (inactivated channel state); HEK293 cells stably expressing human CaV2.2; read-out: Activity Category: %-Inhib (CaV2.2) @3 μM @30 mM KCl
PROPERTY LABEL: inhibition at 3 µM

Cc1c(-c2ccc(Cl)cc2)c(C(=O)N2CCOC(C)(C)C2)n(C(C)C)c1C(F)(F)F; 75 to 95%
CN(C(=O)c1c(-c2ccc(F)cc2)cc(C(F)(F)F)n1CC1CCCO1)C1CCS(=O)(=O)C1 (centres unmarked); 40 to 75%
CC1(C)CN(C(=O)c2c(-c3ccc(F)cc3)cc(C(F)(F)F)n2CC2CCCO2)CCO1 (centres unmarked); 75 to 95%
Cc1c(-c2ccc(Cl)cc2)c(C(=O)N(C)CC(C)(C)C(N)=O)n(C(C)C)c1C(F)(F)F; 75 to 95%
Cc1c(-c2ccc(Cl)cn2)c(C(=O)N(C)C2CCNC2=O)n(C(C)C)c1C(F)(F)F (centres unmarked); 40 to 75%
CC1(C)CN(C(=O)c2c(-c3ccc(Cl)cc3)cc(C(F)(F)F)n2C2CC2)CCO1; 75 to 95%
Cc1c(-c2ccc(Cl)cc2)c(C(=O)N2CCOC(C)(C)C2)n(CC2CCC2)c1C(F)(F)F; 75 to 95%
Cc1c(-c2ccc(Cl)cc2)c(C(=O)N(C)C2CCS(=O)(=O)CC2)n(C2CC2)c1C(F)(F)F; 75 to 95%
CC(C)Cn1c(C(F)(F)F)cc(-c2ccc(F)cc2)c1C(=O)N(C)CC(C)(C)C; 40 to 75%
Cc1cc(CN(C)C(=O)c2c(-c3ccc(Cl)cn3)c(C)c(C(F)(F)F)n2C(C)C)no1; 75 to 95%
CC(C)Cn1c(C(F)(F)F)cc(-c2ccc(F)cc2)c1C(=O)N(C)C1CCOCC1; > 95%
Cc1cc(CN(C)C(=O)c2c(-c3ccc(Cl)cc3)c(C)c(C(F)(F)F)n2C(C)C)no1; > 95%
Cc1c(-c2ccc(Cl)cc2)c(C(=O)N(C)CC(C)(C)CN2CCOCC2)n(C2CC2)c1C(F)(F)F; > 95%
Cc1c(-c2ccc(Cl)cc2)c(C(=O)N2CCOC(C)(C)C2)n(C2CC2)c1C(F)(F)F; > 95%
CC(C)Cn1c(C(F)(F)F)cc(-c2ccc(F)cc2)c1C(=O)N1CCOC(C)(C)C1; 75 to 95%
Cc1c(-c2ccc(Cl)cc2)c(C(=O)N(C)C(CO)CC(C)C)n(C(C)C)c1C(F)(F)F (centres unmarked); 40 to 75%
O=C(c1c(-c2ccc(Cl)cc2)cc(C(F)(F)F)n1C1CC1)N1CC(O)C1; 40 to 75%

###

- TEST TARGET: Human CaV2.2 channels (Homo sapiens, UniProt Q00975)
- Construct: expressed in transfected cells; host or cells: HEK293
- Sequence (Q00975 whole entry): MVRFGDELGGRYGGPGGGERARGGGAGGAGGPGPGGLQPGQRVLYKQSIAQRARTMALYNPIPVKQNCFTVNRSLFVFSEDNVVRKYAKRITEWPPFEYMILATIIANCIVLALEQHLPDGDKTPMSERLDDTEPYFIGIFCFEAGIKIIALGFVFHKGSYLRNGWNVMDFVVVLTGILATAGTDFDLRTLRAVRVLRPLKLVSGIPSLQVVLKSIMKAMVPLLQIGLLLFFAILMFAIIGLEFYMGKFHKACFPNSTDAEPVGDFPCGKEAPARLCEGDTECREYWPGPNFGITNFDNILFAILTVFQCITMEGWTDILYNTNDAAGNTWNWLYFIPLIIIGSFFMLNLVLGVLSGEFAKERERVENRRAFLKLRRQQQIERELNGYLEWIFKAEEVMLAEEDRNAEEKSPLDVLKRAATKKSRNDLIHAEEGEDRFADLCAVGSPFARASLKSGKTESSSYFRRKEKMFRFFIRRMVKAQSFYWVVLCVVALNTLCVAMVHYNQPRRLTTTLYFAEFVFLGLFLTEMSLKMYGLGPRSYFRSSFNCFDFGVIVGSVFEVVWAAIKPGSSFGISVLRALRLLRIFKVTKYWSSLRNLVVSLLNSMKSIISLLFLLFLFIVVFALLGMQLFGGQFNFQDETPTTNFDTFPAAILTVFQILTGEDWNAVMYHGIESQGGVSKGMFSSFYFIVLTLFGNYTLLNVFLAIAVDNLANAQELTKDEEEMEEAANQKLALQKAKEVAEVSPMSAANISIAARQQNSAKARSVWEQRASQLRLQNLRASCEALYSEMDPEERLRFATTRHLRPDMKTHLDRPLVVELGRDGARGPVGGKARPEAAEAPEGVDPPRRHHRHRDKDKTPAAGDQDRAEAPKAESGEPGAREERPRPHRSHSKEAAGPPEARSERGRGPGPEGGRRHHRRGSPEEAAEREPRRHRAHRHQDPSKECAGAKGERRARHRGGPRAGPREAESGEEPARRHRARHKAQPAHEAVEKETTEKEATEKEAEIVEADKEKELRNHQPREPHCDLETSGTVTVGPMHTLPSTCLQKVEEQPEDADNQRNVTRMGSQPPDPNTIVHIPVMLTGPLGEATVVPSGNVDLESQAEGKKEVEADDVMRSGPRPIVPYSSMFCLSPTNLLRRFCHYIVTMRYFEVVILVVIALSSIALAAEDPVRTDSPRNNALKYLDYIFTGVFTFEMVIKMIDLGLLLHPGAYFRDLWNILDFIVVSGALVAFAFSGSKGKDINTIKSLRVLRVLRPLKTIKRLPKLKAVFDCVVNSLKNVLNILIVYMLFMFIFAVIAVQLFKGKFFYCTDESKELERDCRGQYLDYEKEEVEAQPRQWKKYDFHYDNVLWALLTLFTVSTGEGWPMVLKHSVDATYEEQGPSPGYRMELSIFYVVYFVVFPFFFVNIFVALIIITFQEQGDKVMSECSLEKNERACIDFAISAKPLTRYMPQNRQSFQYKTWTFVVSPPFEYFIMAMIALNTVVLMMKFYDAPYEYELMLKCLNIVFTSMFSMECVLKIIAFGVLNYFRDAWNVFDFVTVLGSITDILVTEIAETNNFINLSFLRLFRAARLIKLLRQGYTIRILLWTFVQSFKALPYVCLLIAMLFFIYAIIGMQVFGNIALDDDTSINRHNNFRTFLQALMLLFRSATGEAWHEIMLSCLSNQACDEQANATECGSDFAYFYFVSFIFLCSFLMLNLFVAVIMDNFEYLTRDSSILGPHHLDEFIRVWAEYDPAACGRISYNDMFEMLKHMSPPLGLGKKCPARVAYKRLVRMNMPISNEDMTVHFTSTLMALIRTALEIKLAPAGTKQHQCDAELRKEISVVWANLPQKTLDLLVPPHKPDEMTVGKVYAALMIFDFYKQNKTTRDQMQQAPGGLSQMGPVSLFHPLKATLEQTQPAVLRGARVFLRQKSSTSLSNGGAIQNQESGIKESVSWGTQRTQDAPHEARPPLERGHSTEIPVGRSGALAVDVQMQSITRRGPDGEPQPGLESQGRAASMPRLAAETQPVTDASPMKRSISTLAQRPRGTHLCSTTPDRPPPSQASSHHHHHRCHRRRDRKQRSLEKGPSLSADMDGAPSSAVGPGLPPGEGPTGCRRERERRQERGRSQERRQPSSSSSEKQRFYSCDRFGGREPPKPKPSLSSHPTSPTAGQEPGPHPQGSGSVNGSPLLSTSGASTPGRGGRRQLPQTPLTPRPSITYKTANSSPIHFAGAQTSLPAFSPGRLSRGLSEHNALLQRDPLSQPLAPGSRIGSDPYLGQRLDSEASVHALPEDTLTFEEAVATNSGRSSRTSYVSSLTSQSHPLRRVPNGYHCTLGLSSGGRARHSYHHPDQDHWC
- Sequence (P54284 whole entry, further chain): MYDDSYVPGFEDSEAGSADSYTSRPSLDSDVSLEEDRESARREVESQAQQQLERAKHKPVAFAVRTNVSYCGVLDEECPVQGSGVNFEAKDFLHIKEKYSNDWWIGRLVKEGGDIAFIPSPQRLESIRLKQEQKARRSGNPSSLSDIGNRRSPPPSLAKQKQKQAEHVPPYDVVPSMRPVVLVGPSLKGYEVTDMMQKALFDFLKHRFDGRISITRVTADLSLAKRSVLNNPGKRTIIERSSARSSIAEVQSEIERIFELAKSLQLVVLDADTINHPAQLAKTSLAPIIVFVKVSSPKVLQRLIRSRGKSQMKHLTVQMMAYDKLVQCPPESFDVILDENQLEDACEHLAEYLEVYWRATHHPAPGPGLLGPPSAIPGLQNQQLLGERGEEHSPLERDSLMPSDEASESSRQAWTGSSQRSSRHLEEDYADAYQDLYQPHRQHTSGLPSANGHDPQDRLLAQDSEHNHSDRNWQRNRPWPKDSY
- Sequence (P54289 25-1103, further chain): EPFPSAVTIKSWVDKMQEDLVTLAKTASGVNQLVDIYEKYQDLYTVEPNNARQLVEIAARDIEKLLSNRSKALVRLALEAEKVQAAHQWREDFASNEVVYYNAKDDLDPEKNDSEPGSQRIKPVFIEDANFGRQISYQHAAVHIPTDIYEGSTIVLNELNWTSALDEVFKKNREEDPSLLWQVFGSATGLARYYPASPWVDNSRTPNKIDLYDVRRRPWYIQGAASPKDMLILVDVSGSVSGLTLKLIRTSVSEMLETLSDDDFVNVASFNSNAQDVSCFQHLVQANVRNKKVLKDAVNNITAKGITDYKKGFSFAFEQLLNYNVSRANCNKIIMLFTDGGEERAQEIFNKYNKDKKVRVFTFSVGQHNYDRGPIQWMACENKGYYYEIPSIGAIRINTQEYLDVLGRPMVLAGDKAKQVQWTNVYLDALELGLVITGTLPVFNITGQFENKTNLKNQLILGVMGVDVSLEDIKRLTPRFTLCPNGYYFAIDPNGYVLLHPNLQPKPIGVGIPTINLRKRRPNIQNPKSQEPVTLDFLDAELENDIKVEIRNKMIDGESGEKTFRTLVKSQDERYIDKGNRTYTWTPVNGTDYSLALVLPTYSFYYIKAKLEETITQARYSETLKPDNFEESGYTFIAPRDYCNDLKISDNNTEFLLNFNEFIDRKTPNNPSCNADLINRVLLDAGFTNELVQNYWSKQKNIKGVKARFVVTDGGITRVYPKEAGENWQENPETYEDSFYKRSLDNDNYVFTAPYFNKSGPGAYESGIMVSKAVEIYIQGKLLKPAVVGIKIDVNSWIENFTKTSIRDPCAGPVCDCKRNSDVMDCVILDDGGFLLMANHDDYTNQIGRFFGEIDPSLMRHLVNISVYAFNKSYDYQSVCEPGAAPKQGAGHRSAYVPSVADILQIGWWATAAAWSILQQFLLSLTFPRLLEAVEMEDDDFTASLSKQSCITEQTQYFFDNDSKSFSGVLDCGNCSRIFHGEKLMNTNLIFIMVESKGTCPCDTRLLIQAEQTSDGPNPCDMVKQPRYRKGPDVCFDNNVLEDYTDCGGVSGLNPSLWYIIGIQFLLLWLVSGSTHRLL
- PROCEDURE SUMMARY: Fluorescent (FLIPR) assay for CaV2.2 channels using potassium depolarization to induce channel opening
- Assay type: cell-based
- CONDITION LABEL: 3 μM compound; 30 mM KCl assay buffer (inactivated channel state); HEK293 cells stably expressing human CaV2.2; read-out: Activity Category: %-Inhib (CaV2.2) @3 μM @30 mM KCl
Listing: inhibition at 3 µM of selected compounds
PROPERTY LABEL: inhibition at 3 µM

O=C(c1c(-c2ccc(F)cc2)cc(C(F)(F)F)n1CC1CCCO1)N1CCOCC1 (centres unmarked); 40 to 75%
CC(C)Cn1c(C(F)(F)F)cc(-c2ccc(F)cc2)c1C(=O)N(C)CC(C)(C)CO; 75 to 95%
Cc1c(-c2ccc(Cl)cc2)c(C(=O)N2CCOC(C)(C)C2)n(CC2CC2)c1C(F)(F)F; > 95%
CC(C)Cn1c(C(F)(F)F)cc(-c2ccc(F)cc2)c1C(=O)N1CCOCC1; 75 to 95%
CN(Cc1cnc(N(C)C)nc1)C(=O)c1c(-c2ccc(F)cc2)cc(C(F)(F)F)n1CC1CCCO1 (centres unmarked); 75 to 95%
Cc1c(-c2ncc(Cl)cn2)c(C(=O)N(C)CCS(C)(=O)=O)n(C(C)C)c1C(F)(F)F; 30 to 40%
Cc1c(-c2ccc(Cl)cc2)c(C(=O)N(C)C2CCNC2=O)n(C(C)C)c1C(F)(F)F (centres unmarked); 75 to 95%
Cc1c(-c2ncc(Cl)cn2)c(C(=O)N(C)C(C)C)n(C(C)C)c1C(F)(F)F; 40 to 75%
Cc1noc(C2CCN(C(=O)c3c(-c4ccc(Cl)cc4)c(C)c(C(F)(F)F)n3CC(C)C)CC2)n1; 75 to 95%
CCn1c(C(=O)N2CCOC(C)(C)C2)c(-c2ccc(Cl)cc2)c(C)c1C(F)(F)F; 75 to 95%
Cc1c(-c2ccc(Cl)cc2)c(C(=O)N(C)C2CCOCC2)n(C2CC2)c1C(F)(F)F; 75 to 95%
